This collection of values is drawn from the supplement of paper PMC8612539.

System: Escherichia coli
Test: minimum inhibitory concentration (MIC)
Conditions: isolate (source animal id): 158
readout: minimum inhibitory concentration (µg/mL)

>>> meas_value("CN[C@@H]1[C@H](O)[C@H](NC)[C@H]2O[C@@]3(O)C(=O)C[C@@H](C)O[C@H]3O[C@@H]2[C@H]1O")
16
>>> meas_value("CC1(C)S[C@@H]2[C@H](NC(=O)[C@H](N)c3ccccc3)C(=O)N2[C@H]1C(=O)O")
4
>>> meas_value("CO/N=C(\\C(=O)N[C@@H]1C(=O)N2C(C(=O)O)=C(CSC(=O)c3ccco3)CS[C@H]12)c1csc(N)n1")
0.5

###

System: Mannheimia haemolytica
Assay: minimum inhibitory concentration (MIC)
Conditions: isolate (source animal id): 323
minimum inhibitory concentration values by entry
readout: minimum inhibitory concentration (µg/mL)

>>> meas_value("CCN1CCN(c2cc3c(cc2F)c(=O)c(C(=O)O)cn3C2CC2)CC1")
0.5
>>> meas_value("C=C[C@]1(C)C[C@@H](OC(=O)CSCCN(CC)CC)[C@]2(C)[C@H](C)CC[C@]3(CCC(=O)[C@H]32)[C@@H](C)[C@@H]1O")
16
>>> meas_value("CC1(C)S[C@@H]2[C@H](NC(=O)Cc3ccccc3)C(=O)N2[C@H]1C(=O)O")
0.25

###

Tested on: Histophilus somni
Assay: minimum inhibitory concentration (MIC)
Settings: isolate (source animal id): 153
readout: minimum inhibitory concentration

>>> meas_value("CC[C@H]1OC(=O)C[C@@H](O)[C@H](C)[C@@H](O[C@@H]2O[C@H](C)[C@@H](O)[C@H](N(C)C)[C@H]2O)[C@@H](CCN2CCCCC2)C[C@@H](C)C(=O)/C=C/C(C)=C/[C@@H]1CN1CCCCC1")
"8 µg/mL"
>>> meas_value("NC[C@@H]1O[C@H](O[C@H]2[C@@H](O)[C@H](O[C@@H]3[C@@H](O)[C@H](N)C[C@H](N)[C@H]3O[C@H]3O[C@H](CN)[C@@H](O)[C@H](O)[C@H]3N)O[C@@H]2CO)[C@H](N)[C@@H](O)[C@@H]1O")
"> 32 µg/mL"
>>> meas_value("CNC(C)C1CCC(N)C(OC2C(N)CC(N)C(OC3OCC(C)(O)C(NC)C3O)C2O)O1 (stereo unspecified)")
"8 µg/mL"
>>> meas_value("CCCNC[C@]1(O)[C@H](C)O[C@@H](O[C@H]2[C@H](C)[C@@H](O[C@@H]3O[C@H](C)C[C@H](N(C)C)[C@H]3O)[C@](C)(O)C[C@@H](C)CN[C@H](C)[C@@H](O)[C@](C)(O)[C@@H](CC)OC(=O)[C@@H]2C)C[C@@]1(C)OC")
"16 µg/mL"
>>> meas_value("CN1C[C@@H]2C[C@H]1CN2c1cc2c(cc1F)c(=O)c(C(=O)O)cn2C1CC1")
"≤ 0.12 µg/mL"
>>> meas_value("CO/N=C(\\C(=O)N[C@@H]1C(=O)N2C(C(=O)O)=C(CSC(=O)c3ccco3)CS[C@H]12)c1csc(N)n1")
"≤ 0.25 µg/mL"

###

System: Escherichia coli
Test: minimum inhibitory concentration (MIC)
Conditions: isolate (source animal id): 172
readout: minimum inhibitory concentration

>>> meas_value("CCCNC[C@]1(O)[C@H](C)O[C@@H](O[C@H]2[C@H](C)[C@@H](O[C@@H]3O[C@H](C)C[C@H](N(C)C)[C@H]3O)[C@](C)(O)C[C@@H](C)CN[C@H](C)[C@@H](O)[C@](C)(O)[C@@H](CC)OC(=O)[C@@H]2C)C[C@@]1(C)OC")
"≤ 8 µg/mL"
>>> meas_value("CO/N=C(\\C(=O)N[C@@H]1C(=O)N2C(C(=O)O)=C(CSC(=O)c3ccco3)CS[C@H]12)c1csc(N)n1")
"≤ 0.25 µg/mL"
>>> meas_value("COc1cc(NS(=O)(=O)c2ccc(N)cc2)nc(OC)n1")
"≤ 256 µg/mL"
>>> meas_value("CC[C@H]1OC(=O)C[C@@H](O)[C@H](C)[C@@H](O[C@@H]2O[C@H](C)[C@@H](O[C@H]3C[C@@](C)(O)[C@@H](O)[C@H](C)O3)[C@H](N(C)C)[C@H]2O)[C@@H](CC=O)C[C@@H](C)C(=O)/C=C/C(C)=C/[C@@H]1CO[C@@H]1O[C@H](C)[C@@H](O)[C@@H](OC)[C@H]1OC")
"> 32 µg/mL"
>>> meas_value("CCC[C@@H]1C[C@@H](C(=O)N[C@@H]([C@H]2O[C@H](SC)[C@H](O)[C@@H](O)[C@H]2O)[C@H](C)Cl)N(C)C1")
"> 16 µg/mL"
>>> meas_value("CS(=O)(=O)c1ccc([C@@H](O)[C@@H](CF)NC(=O)C(Cl)Cl)cc1")
"2 µg/mL"
